experiment: Determination of S from retention time shift Δ relative to P3 at two gradient slopes, nano-RP-HPLC MS of spiked tryptic digest; type: physicochemical; conditions: experimental S value, LC-MS runs of model peptide mixture
quantity name: Slope (experimental)
Enter the number alone.

Record excerpt, results attached:
>>> reported_measurement("AFALECIR")
26.057
>>> reported_measurement("LLGGSLSSLDAAFR")
30.604
>>> reported_measurement("LQDTLVR")
29.045
>>> reported_measurement("YQLSVSK")
31.531
>>> reported_measurement("ILNKQQDDFGK")
40.011
>>> reported_measurement("TPIAVR")
33.313

Using the record for "DKVVQLEANCQEPCQDTVK" , report its Slope (experimental). 42.675

Using the record for "FFSASCVPCIDR" , report its Slope (experimental). 32.333

Using the record for "LLLLDFR" , report its Slope (experimental). 23.297

Using the record for "CGLVPVLAENYK" , report its Slope (experimental). 27.604

----------
assay: Determination of S from retention time shift Δ relative to P3 at two gradient slopes, nano-RP-HPLC MS of spiked tryptic digest; assay type: physicochemical; conditions: experimental S, LC-MS runs of model peptide mixture, formic acid
Binned Slope (experimental); ranges: bin 1 = under 30, bin 2 = from 30 up to 40, bin 3 = 40 and over

Completed entries (count: 5):
>>> class_name("LGGGGGGDFR")
"bin 2"
>>> class_name("MVLETFGGDGHAR")
"bin 2"
>>> class_name("GACLLPK")
"bin 1"
>>> class_name("GTGKECVPNSNER")
"bin 3"
>>> class_name("DQLVDMK")
"bin 1"

Hi, small favor: classify "GDKVTALYEGFTVQNEANK" by its Slope (experimental) when you get a moment. bin 2

Hi, small favor: classify "SFQLFGSPPGQR" by its Slope (experimental) when you get a moment. bin 1

Hi, small favor: classify DSALGFLR [tryptic peptide detected in the model peptide mixture] by its Slope (experimental) when you get a moment. bin 1

Hi, small favor: classify VTGENDKYR [moderately sized, hydrophilic tryptic species of the model peptide mixture] by its Slope (experimental) when you get a moment. bin 3

Hi, small favor: classify "CACSNHEPYFGYSGAFK" by its Slope (experimental) when you get a moment. bin 2

Hi, small favor: classify "ECCDKPLLEK" by its Slope (experimental) when you get a moment. bin 2

Hi, small favor: classify "AWSVAR" by its Slope (experimental) when you get a moment. bin 1

Hi, small favor: classify "RHPEYAVSVLLR" by its Slope (experimental) when you get a moment. bin 2

----------
experiment: Determination of S from retention time shift Δ relative to P3 at two gradient slopes, nano-RP-HPLC MS of spiked tryptic digest; assay type: physicochemical; conditions: experimental S, LC-MS runs of model peptide mixture, formic acid
Listed here: items and their measured Slope (experimental).

>>> reported_measurement("QGFGNIATNAEGKK")
37.184
>>> reported_measurement("DKPDNFQLFQSPHGK")
32.597
>>> reported_measurement("VHKECCHGDLLECADDRADLAK")
44.599

Using the record for "NYELLCGDNTRK" , report its Slope (experimental). 31.767

Using the record for "ELLIDNEK" , report its Slope (experimental). 25.018

Using the record for "DDPHACYSTVFDKLK" , report its Slope (experimental). 35.483

Using the record for GEGENQCACSSR [moderately sized, hydrophilic tryptic species of the model peptide mixture] , report its Slope (experimental). 54.005

Source listed as patent US8620595B2.
